Test: chemical genetic growth profiling, strain panel (AID 1159580);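 further: tested at 20 µM; growth read once vehicle control cultures reached saturation at 30 °C; 1 = growth at the plate median or of vehicle wells; lower values mean less growth of the strain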
Conditions: S. cerevisiae deletion strains, growth OD, locus YDR101C, strain arx1
About 2,000 (36%) of roughly 5,500 compounds were called active. Roughly 18% stayed inconclusive and do not appear here. No stated cut-off is given here; in the data, active means normalized growth mostly below about 0.91 (no sharp cut-off); inconclusive means no clear call, values can overlap the other calls; inactive means mostly above about 0.92. Some of the results follow.
Valid outcomes are listed here; reply with one: YES (active), NO (inactive)

COC(=O)C1=CO[C@@H](O[C@@H]2O[C@H](CO)[C@@H](O)[C@H](O)[C@H]2O)[C@@H]2[C@@H](C)[C@@H](O)C[C@H]12 ... NO

Req: Record request — test call for Cn1c([N+](=O)[O-])cnc1COC(N)=O
Resp: NO

Req: Next entry: Cn1nnnc1SCC1=C(C(=O)O)N2C(=O)C(NC(=O)C(OC=O)c3ccccc3)C2SC1 (stereo not drawn)
Resp: NO

Req: Next entry: O=c1c(-c2ccc3c(c2)OCO3)coc2cc(O)ccc12
Resp: NO

Req: Next entry: CC(=O)N[C@@H](CC(=O)O)C(=O)O
Resp: NO

Req: Next entry: NCCS
Resp: NO

Req: Next entry: COc1cc(OC)c2c(c1Cl)OC1(C2=O)C(O)=CC(=O)CC1C (stereo not drawn)
Resp: NO

Req: Next entry: Cn1cnc([N+](=O)[O-])c1Sc1ncnc2nc[nH]c12
Resp: NO

* * *

Assay: chemical genetic growth profiling, strain panel (AID 1159580)
Details: S. cerevisiae deletion strains, growth OD, locus YNL020C, strain ARK1, hits give low values
About 2,000 (36%) of roughly 5,500 compounds were called active. Inconclusive results (about 18%) are left out. Some of the results follow.
TEST_READOUT: normalized growth
Answer with a number only.

Solved cases (5 shown):
Nc1ccccc1C(=O)N/N=C\c1cc(Cl)cc(Cl)c1O ... 0.516
N/C(=N/OC(=O)c1ccccc1Cl)c1ccc2nonc2c1 ... 0.98
CC1CCc2c(sc3ncnc(Sc4ccccc4)c23)C1 (stereo unspecified) ... 0.943
COc1ccc(-c2cc(NS(=O)(=O)c3cccc(F)c3)n(-c3ccc(Cl)c(Cl)c3)n2)cc1 ... 0.89
COc1cc(OC)cc(/C(N)=N\O)c1 ... 0.959

Req: What value of normalized growth has been reported for the following compound? N/C(=N/OC(=O)c1ccccc1Cl)c1cccc(CS(=O)(=O)c2ccc(Cl)cc2)c1
Resp: 1.02

Req: Next entry: O=C1CSC(=Nc2cc(Cl)cc(Cl)c2)N1Cc1cccnc1
Resp: 0.945

Req: Next entry: O=C(c1ccc(Cl)cc1)N1CCN(c2ccc(C(F)(F)F)cn2)CC1
Resp: 0.956

Req: Next entry: O=S(=O)(Nc1ccc(-n2nc(C(F)(F)F)cc2-c2cccs2)cc1)c1ccc(F)cc1
Resp: 0.987

Req: Next entry: Cc1c(Cl)cccc1N=C1SCC(=O)N1Cc1ccco1
Resp: 0.914

Req: Next entry: O=S(=O)(Nc1cc(-c2cccs2)nn1-c1ccc(I)cc1)c1cccc(F)c1
Resp: 0.946

* * *

Test: chemical genetic growth profiling, strain panel (AID 1159580)
Details: S. cerevisiae deletion strains, growth OD, locus YHR027C, strain rpn1
Hit rate of the full screen: of about 5,500 compounds, about 2,000 (36%) were called active. Not shown: some 18% with an inconclusive outcome. Rule as the data show it: active = normalized growth mostly below about 0.91 (no sharp cut-off); inconclusive = no clear call, values can overlap the other calls; inactive = mostly above about 0.92. This is one part of the list.
Valid outcomes are listed here; reply with one: active, inactive

COc1cc(O)c(C(=O)O)c(O)c1 ... inactive
CC(=O)OCC(=O)[C@@]1(O)CCC2C3CCC4=CC(=O)CC[C@]4(C)[C@@]3(F)[C@@H](O)C[C@@]21C (stereo partly drawn) ... inactive
COC(=O)C[C@H]1C(C)(C)[C@@H](OC(C)=O)[C@@H]2CC3C4CC(=O)O[C@@H](c5ccoc5)[C@]4(C)CCC3[C@@]1(C)C2=O (stereo partly drawn) ... inactive
CC(=O)Oc1ccc2c(c1)CCC1C2CCC2(C)C1CC(OC(C)=O)C2OC(C)=O (stereo not drawn) ... inactive
CC(=O)OC1CCC23C(=O)OC45CCC(C6=CC(=O)OC6)C4(C)CCC2C5CCC3(O)C1 (stereo not drawn) ... inactive

Now consider the entry below.
Req: Record request — test call for CC(C)=CCC1=C(O)c2ccccc2C(=O)C1=O
Resp: active

* * *

Listed next: entries and their corresponding normalized growth.
Test: chemical genetic growth profiling, strain panel (AID 1159580)
Settings: S. cerevisiae deletion strains, growth OD, locus YLL026W, hits give low values
Out of some 5,500 compounds screened, about 2,000 (36%) were called active. Roughly 18% stayed inconclusive and do not appear here. The list shows a part of the results.
Answer with a number only.

Solved cases (8 shown):
CC(=O)O[C@@H]1CC2C(C)(C)[C@H](O)C[C@H](O)[C@]2(C)C2CC[C@@]3(C)C(=CC(=O)O[C@H]3c3ccoc3)[C@@]21C (stereo not given in full) ... 0.996
COC(=O)C1=CO[C@@H](O[C@@H]2O[C@H](CO)[C@@H](O)[C@H](O)[C@H]2O)[C@@H]2[C@@H](C)[C@@H](O)C[C@H]12 ... 1
CC(C(=O)O)c1ccc(N2Cc3ccccc3C2=O)cc1 (stereo not given) ... 0.988
COc1cc2ccc(=O)oc2cc1O ... 0.971
COc1cc(O)c(C(=O)O)c(O)c1 ... 1
Cn1cnc([N+](=O)[O-])c1Sc1ncnc2nc[nH]c12 ... 1.03
CN1CCN(C(c2ccccc2)c2ccccc2)CC1 ... 0.999
O=c1[nH]c2ccccc2n1CCCN1CCC(n2c(=O)[nH]c3cc(Cl)ccc32)CC1 ... 0.969

Req: What value of normalized growth has been reported for the following compound? COc1ccc2c(=O)c(CC(=O)O)coc2c1
Resp: 0.982

Req: Next entry: Fc1ccc(C(c2ccc(F)cc2)N2CCN(C/C=C/c3ccccc3)CC2)cc1
Resp: 0.257

* * *

Assay: chemical genetic growth profiling, strain panel (AID 1159580);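 further: tested at 20 µM; growth read once vehicle control cultures reached saturation at 30 °C; 1 = growth at the plate median or of vehicle wells; lower values mean less growth of the strain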
Conditions: S. cerevisiae deletion strains, growth OD, locus YBL061C, strain skt5
In all, about 5,500 compounds went through this assay and about 2,000 (36%) were called active. About 18% were inconclusive and are not listed. Cut-off read from the data, not from the text of the source: active = normalized growth mostly below about 0.91 (no sharp cut-off); inconclusive = no clear call, values can overlap the other calls; inactive = mostly above about 0.92. Some of the results follow.
Valid outcomes are listed here; reply with one: YES = active, NO = inactive

O=c1n(CCCN2CCN(c3cccc(Cl)c3)CC2)nc2ccccn12 ... NO
Fc1ccc(C(c2ccc(F)cc2)N2CCN(C/C=C/c3ccccc3)CC2)cc1 ... YES
COc1cc(OC)c(C(C)=O)c(O)c1C ... NO
Cn1nnnc1SCC1=C(C(=O)O)N2C(=O)C(NC(=O)C(OC=O)c3ccccc3)C2SC1 (stereo not drawn) ... NO
OC[C@@H](O)C(O[C@@H]1O[C@H](CO)[C@H](O)[C@H](O)[C@H]1O)[C@H](O)[C@@H](O)CO (stereo partly drawn) ... NO

Now consider the entry below.
Req: Record request — test call for COC(=O)C1=CO[C@@H](O[C@@H]2O[C@H](CO)[C@@H](O)[C@H](O)[C@H]2O)[C@@H]2[C@@H](C)[C@@H](O)C[C@H]12
Resp: NO

* * *

Experiment: chemical genetic growth profiling, strain panel (AID 1159580);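 further: tested at 20 µM; growth read once vehicle control cultures reached saturation at 30 °C; 1 = growth at the plate median or of vehicle wells; lower values mean less growth of the strain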
Conditions: S. cerevisiae deletion strains, growth OD, locus YER110C, hits give low values
Hit rate of the full screen: of about 5,500 compounds, about 2,000 (36%) were called active. About 18% were inconclusive and are not listed. The list shows a part of the results.
Listed next: entries and their corresponding normalized growth.
Answer with a number only.

Solved cases (4 shown):
C[C@]12CCC3c4ccc(O)cc4CCC3C1CC[C@@H]2OC(=O)CCC1CCCC1 (stereo not given in full) ... 1.01
O=C1c2ccc(O)c(O)c2C(=O)c2c(O)ccc(O)c21 ... 0.991
C/C=C(\C)C(=O)OC1[C@@H]2C=C3C4CC(=O)O[C@@H](c5ccoc5)[C@]4(C)CCC3[C@@](C)(C2=O)[C@@H](C(O)C(=O)OC)C1(C)C (stereo not given in full) ... 1.01
CC(=O)Oc1ccc2c(c1)CCC1C2CC[C@@]2(C)C1CC[C@@H]2OC(C)=O (stereo not given in full) ... 0.984

Now, please, on to the next compound.
Req: What value of normalized growth has been reported for the following compound? Cn1c([N+](=O)[O-])cnc1COC(N)=O
Resp: 0.988

* * *

Listed next: entries and their corresponding normalized growth.
Assay: chemical genetic growth profiling, strain panel (AID 1159580);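 further: tested at 20 µM; growth read once vehicle control cultures reached saturation at 30 °C; 1 = growth at the plate median or of vehicle wells; lower values mean less growth of the strain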
Details: S. cerevisiae deletion strains, growth OD, locus YER111C, strain swi4, hits give low values
About 2,000 (36%) of roughly 5,500 compounds were called active. Not shown: some 18% with an inconclusive outcome. This is one part of the list.
Answer with a number only.

Solved cases (5 shown):
CC(=O)O[C@@H]1CC2C(C)(C)[C@H](O)C[C@H](O)[C@]2(C)C2CC[C@@]3(C)C(=CC(=O)O[C@H]3c3ccoc3)[C@@]21C (stereo not given in full) ... 0.978
O=C(CCCN1CC=C(n2c(=O)[nH]c3ccccc32)CC1)c1ccc(F)cc1 ... 0.975
Cc1cccc(N(C)C(=S)Oc2ccc3ccccc3c2)c1 ... 1.01
O=C1c2ccc(O)c(O)c2C(=O)c2c(O)ccc(O)c21 ... 0.708
CCOc1nc2cccc(C(=O)OC(C)OC(=O)OC3CCCCC3)c2n1Cc1ccc(-c2ccccc2-c2nn[nH]n2)cc1 (stereo not given) ... 1.04

Req: What value of normalized growth has been reported for the following compound? COc1c2occc2cc2ccc(=O)oc12
Resp: 0.973

Req: Next entry: C[C@]12CCC3C(CC[C@H]4CC(=O)CC[C@]34C)C1CCC2=O (stereo not given in full)
Resp: 0.998

Req: Next entry: O=c1[nH]c2ccccc2n1C1CCN(CCCC(c2ccc(F)cc2)c2ccc(F)cc2)CC1
Resp: 1.02

Req: Next entry: CN1CCN(C(c2ccccc2)c2ccccc2)CC1
Resp: 0.983

Req: Next entry: O=c1[nH]c2ccccc2n1CCCN1CCC(n2c(=O)[nH]c3cc(Cl)ccc32)CC1
Resp: 0.976
